molecular target: Torsin-1A-interacting protein 1 (Homo sapiens) (UniProt Q5JTV8); assay: LAP1 binders from COS7 cell lysate, primary screen, small-molecule microarray, 635/667 nm fluorescence (AID 1116); conditions: COS7-hLAP1 lysate binding, 635 nm fluorescence, higher = more signal
Sequence (Q5JTV8 whole entry, looked up): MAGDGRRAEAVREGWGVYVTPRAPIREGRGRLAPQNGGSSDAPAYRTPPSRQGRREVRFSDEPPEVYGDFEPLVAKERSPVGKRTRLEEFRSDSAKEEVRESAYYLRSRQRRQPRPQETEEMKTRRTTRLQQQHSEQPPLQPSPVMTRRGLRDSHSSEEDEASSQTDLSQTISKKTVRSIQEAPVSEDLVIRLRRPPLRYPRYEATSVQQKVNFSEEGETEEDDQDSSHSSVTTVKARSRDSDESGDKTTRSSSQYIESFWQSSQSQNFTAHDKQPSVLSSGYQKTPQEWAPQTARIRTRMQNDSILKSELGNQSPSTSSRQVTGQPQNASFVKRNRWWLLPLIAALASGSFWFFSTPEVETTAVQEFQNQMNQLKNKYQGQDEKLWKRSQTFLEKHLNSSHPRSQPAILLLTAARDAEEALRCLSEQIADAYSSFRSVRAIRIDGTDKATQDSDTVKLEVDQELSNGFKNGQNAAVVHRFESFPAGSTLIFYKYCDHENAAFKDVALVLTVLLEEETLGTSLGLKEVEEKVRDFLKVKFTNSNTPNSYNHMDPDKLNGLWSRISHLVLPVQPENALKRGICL
Entries and their composite z-score
METRIC NAME: composite z-score

COMPOUND | REPORTED VALUE
Cc1cc(C)c(C(O)C2C=CC3C(=O)N(C)C(=O)C3N2Nc2ccccc2)c(C)c1 (configuration not stated) | 1.23
CC(C)C(=C=CC[C@H](O)c1ccccc1OCCO)C[C@H](O)c1ccccn1 | 0.94
COc1ccc(C#Cc2ccc3c(c2)[C@]2(C(=O)N3)[C@H](C(=O)NC[C@H](O)c3ccccc3)[C@H]3C(=O)O[C@H](c4ccccc4)[C@H](c4ccccc4)N3[C@@H]2c2ccccc2OCCO)cc1 | 0.967
COc1ccc(CCNC(=O)[C@@]2(c3ccc([N+](=O)[O-])cc3)CC(=O)N(CC34CC5CC(CC(C5)C3)C4)[C@@H]2c2ccc(CO)cc2)cc1 | 0.299
Cc1ccc(F)cc1S(=O)(=O)N[C@@H]1CCN(Cc2ccc(-c3ccccc3)cc2)C1 | 0.668
CC(C)NC(=O)[C@@H]1c2ccccc2C(=O)N(Cc2ccccc2)[C@H]1c1ccc(CO)cc1 | 1.57
CC(C)NC(=O)[C@@]1(Cc2ccccc2I)c2ccccc2C(=O)N(Cc2ccccc2)[C@H]1c1ccc(CO)cc1 | 0.568

----------
biological target: Neurogenic locus notch homolog protein 2 (Homo sapiens); experiment: Notch2 binders on small-molecule microarrays, primary screen, biochemical, small-molecule microarray, 635 nm fluorescence, stem cell growth factors (AID 1073); conditions: Notch2 binding, higher = more signal
METRIC NAME: composite z-score

COMPOUND | ASSAYED SYSTEM | REPORTED VALUE
C=C[C@@H](COC(C)=O)N(Cc1ccccc1[N+](=O)[O-])S(=O)(=O)c1ccc(Br)cc1 | Neurogenic locus notch homolog protein 2 (Homo sapiens) | 1.01
COC(=O)[C@@]1(Cc2ccccc2)[C@H]2c3cc(C(=O)N(C)C)n(Cc4c(-c5ccccc5)noc4C)c3C[C@H]2CN1C(=O)c1ccccc1 | Neurogenic locus notch homolog protein 2 (Homo sapiens) | 1.66
COc1ccc(C(O)C2C=CC3C(=O)N(c4ccccc4)C(=O)C3N2Nc2ccc([N+](=O)[O-])cc2)cc1OCc1ccccc1 (centres undefined) | Neurogenic locus notch homolog protein 2 (Homo sapiens) | 1.29
CCOC(=O)C1=CCC(c2ccc([N+](=O)[O-])cc2)N(S(=O)(=O)c2ccc(C)cc2)C1 (centres undefined) | Neurogenic locus notch homolog protein 2 (Homo sapiens) | 0.716

----------
assay: basal S. cerevisiae growth modulation, no modifier, primary screen, OD600, strain BY4716, 24 h, basal condition (AID 1173); settings: OD600, 24 h, higher = more signal, called active from +8 up or from −8 down
# z-score >= -0.5 gives condition met, anything below gives condition not met

MOLECULE | ASSIGNED CLASS
[N-]=[N+]=Nc1ccccc1[C@@H]1OC(c2ccc(OCCCO)cc2)=N[C@]1(CCS(=O)(=O)c1ccccc1)C(=O)N1CCOCC1 | condition met
O=c1cccc(C=Cc2ccccc2)o1 | condition not met
NC(=O)NCC#Cc1ccc2c(c1)[C@]1(C(=O)N2)[C@H](C(=O)N2CCCCCCC2)[C@H]2C(=O)O[C@H](c3ccccc3)[C@H](c3ccccc3)N2[C@@H]1c1ccc(OCCO)cc1 | condition met
COC(=O)C(CC#Cc1ccc2c(c1)[C@]1(C(=O)N2)[C@H](c2ccc(OCCO)cc2)N2[C@H](c3ccccc3)[C@H](c3ccccc3)OC(=O)[C@H]2[C@@H]1C(=O)NC[C@H](O)c1ccccc1)C(=O)OC | condition met
CN1C(=O)C2C(C1=O)C1C=C(CCCO)C2C(c2cccs2)N1C (configuration not stated) | condition met
C=C[C@H](COC(C)=O)N(Cc1ccc(OC(C)=O)c(OC)c1)S(=O)(=O)c1ccc(Br)cc1 | condition not met
COC(=O)c1ccc(C23CC2(C(NP(=O)(c2ccccc2)c2ccccc2)c2ccccc2)C3)cc1 (configuration not stated) | condition not met
